Assay: chemical genetic growth profiling, strain panel (AID 1159580);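 also: tested at 20 µM; growth read once vehicle control cultures reached saturation at 30 °C; lower values mean less growth of the strain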
Settings: S. cerevisiae deletion strains, growth OD, locus YKL068W
The whole screen tested about 5,500 compounds, of which about 2,000 (36%) were called active. Another 18% or so got no clear call; they are omitted. Rule as the data show it: active = normalized growth mostly below about 0.91 (no sharp cut-off); inconclusive = no clear call, values can overlap the other calls; inactive = mostly above about 0.92. The list shows a part of the results.
Please answer using one outcome listed in Y for active, N for inactive

Previously resolved entries follow.
compound=CCCCCCCCCCC[C@@H](C[C@H]1OC(=O)[C@H]1CCCCCC)OC(=O)[C@@H](CC(C)C)NC=O assigned_label=N
compound=NC(=O)c1ccc[n+]([C@@H]2O[C@H](COP(=O)([O-])OP(=O)(O)OC[C@H]3O[C@@H](n4cnc5c(N)ncnc54)[C@H](OP(=O)(O)O)[C@@H]3O)[C@@H](O)[C@H]2O)c1 assigned_label=N
compound="COc1ccc(OC)c(C(O)CNC(=O)CN)c1 (centres undefined)" assigned_label=N

Recorded test call requested for COc1ccc(CN(CCN(C)C)c2ccccn2)cc1
N

Fill in: this test's call for O=C1CCC(N2C(=O)c3ccccc3C2=O)C(=O)N1 (centres undefined) is ___
N

Outcome? C=C[C@@](C)(O)CCC1C(=C)C[C@H](OC(C)=O)C2C(C)(C)CCCC12C (some centres undefined)
N

# lookup: test call for O=C1C(Cl)=C(Cl)C(=O)C(Cl)=C1Cl
Y

Please indicate how the test categorized COc1cc2nc(N(C)CCCNC(=O)C3CCCO3)nc(N)c2cc1OC (centres undefined) .
N

Just curious, what result did C=C1CCC2[C@](C)(CO)[C@H](O)CC[C@@]2(C)[C@@H]1C/C=C1/C(=O)OC[C@H]1O (some centres undefined) get here?
N

Call for entry COC(=O)/C=C/C(C)=C/C=C/C(C)=C/C=C/C=C(C)/C=C/C=C(C)/C=C/C(=O)O :
N

Which outcome was entered for the compound Clc1ccc(C(c2ccc(Cl)cc2)C(Cl)(Cl)Cl)cc1 in this test?
N

I would be grateful if you could indicate the recorded call for COC(=O)[C@@H]1OC(=O)C2OC23[C@@]1(C)CCC1[C@]2(C)C(C[C@H](O)[C@]13C)C(C)(C)[C@H](OC(C)=O)C[C@@H]2OC(C)=O (some centres undefined) .
N

Write down the call the test reported for this compound. Item: CCCCC[C@H]1C(=O)O[C@H](C)[C@H](NC(=O)c2cccc(NC=O)c2O)C(=O)O[C@@H](C)[C@@H]1OC(=O)CC(C)C
N

Give the logged outcome of this assay for the following compound: CN(C)CCN(Cc1cccs1)c1ccccn1
N

Give the logged outcome of this assay for the following compound: C#CCN(C)Cc1ccccc1
N

GET /call?item= CCC[C@H](N[C@@H](C)C(=O)N1[C@H](C(=O)O)C[C@@H]2CCCC[C@@H]21)C(=O)OCC returns the recorded outcome of this test.
N

Any idea what this test logged for CN(C)CCN(Cc1ccccc1)c1ccccn1 ?
N

Could you check what this test reported for CC1(C)CCC[C@@]2(C)C1[C@@H](O)C[C@]1(C)C2CC[C@@H]2[C@@]3(C)CC[C@H](C(C)(C)O)[C@@H]3CC[C@@]21C (some centres undefined) ?
N

Give the logged outcome of this assay for the following compound: COc1ccc(C(=O)CC(=O)O)c2c1C=CC(C)(C)O2
N
